Target Or System: human FXR (NR1H4) (Homo sapiens)
Construct: host or cells: CHO (Chinese hamster ovary) reporter cells
Sequence (Q96RI1 whole entry): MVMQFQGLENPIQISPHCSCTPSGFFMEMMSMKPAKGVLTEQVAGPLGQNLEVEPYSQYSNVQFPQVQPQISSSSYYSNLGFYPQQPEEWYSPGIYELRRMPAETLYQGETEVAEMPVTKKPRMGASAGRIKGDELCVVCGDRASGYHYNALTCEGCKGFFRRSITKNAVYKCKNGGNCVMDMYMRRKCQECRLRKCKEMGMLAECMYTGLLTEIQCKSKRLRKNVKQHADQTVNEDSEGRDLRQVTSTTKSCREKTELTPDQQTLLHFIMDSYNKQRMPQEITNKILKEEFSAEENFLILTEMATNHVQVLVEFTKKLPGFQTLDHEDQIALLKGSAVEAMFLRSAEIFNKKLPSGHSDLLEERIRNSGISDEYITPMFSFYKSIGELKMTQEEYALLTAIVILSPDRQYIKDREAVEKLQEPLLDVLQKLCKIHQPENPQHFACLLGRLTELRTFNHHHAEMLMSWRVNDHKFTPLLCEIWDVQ
Measurement Description: Human FXR (NR1H4) Assay (Gal4 promoter driven luciferase reporter assay in CHO cells)
Type: cell-based
Assay Setup: efficacy normalized to CDCA set as 100%, CHO cells expressing human NR1H4
Emax less than 80% is True; Emax greater than or equal to 80% is False.

| Structure String | Assigned Label |
| --- | --- |
| CC(C)Oc1cc(C(=O)O)cc2sc(N(C)[C@H]3CC[C@H](OCc4c(-c5c(Cl)cccc5Cl)noc4C4CC4)C3)nc12 | True |
| O=C(O)c1cc(F)c2nc(N[C@H]3CC[C@@H](OCc4c(-c5c(Cl)cccc5Cl)noc4C4CC4)CC3)sc2c1 | True |
| CC(C)Oc1cc(C(=O)O)cc2sc(N(C)[C@@H]3CC[C@@H](OCc4c(-c5c(Cl)cccc5Cl)noc4C4CC4)C3)nc12 | True |
| CC(C)Oc1cc(C(=O)O)cc2sc(N[C@H]3CC[C@@H](OCc4c(-c5c(Cl)cccc5Cl)noc4C4CC4)CC3)nc12 | False |
| CC(C)Oc1cc(C(=O)O)cc2sc(N[C@@H]3CC[C@H](OCc4c(-c5ccccc5OC(F)(F)F)noc4C4CC4)C3)nc12 | False |
| CC(C)Oc1cc(C(=O)O)cc2sc(N(C)[C@H]3CC[C@@H](OCc4c(-c5c(Cl)cccc5Cl)noc4C4CC4)CC3)nc12 | True |
| O=C(O)c1cc(F)c2nc(N[C@@H]3CC[C@H](OCc4c(-c5c(Cl)cccc5Cl)noc4C4CC4)C3)sc2c1 | False |
| CC(C)Oc1cc(C(=O)O)cc2sc(N(C)[C@@H]3CC[C@H](OCc4c(-c5c(Cl)cccc5Cl)noc4C4CC4)C3)nc12 | False |
